pEC50 values by entry
- Test system: MMP1 expression by SFs
- Procedure summary: 'MMP assay': MMP1 expression by 'complex trigger' activated synovial fibroblasts (MMP1 ELISA)
- Assay type: cell-based, human
- Study conditions: Homo sapiens, Fibroblast, RASFs, 48 hrs
pEC50: −log10 of the molar value.

> print(dat)
                                smiles.repr        result
1  NC(=O)c1cc(-c2cnc(Nc3ccc(C4CCN(CC(F)(F)F)CC4)cc3)c3nccn23)cs1  6.00 to 6.30

Ask: Sample CC(C)N1CCN(c2ccc(Nc3ncc(-c4cc(F)c(C(N)=O)c(F)c4)n4ccnc34)cc2)CC1 — what was its pEC50?
Result: 6.00 to 6.30

Ask: What about CC(C)N1CCN(c2ccc(Nc3ncc(-c4cc5c(o4)CNC5=O)n4ccnc34)cc2)CC1 ?
Result: 6.00 to 6.30

Ask: What about Cc1cc(-c2cnc(Nc3ccc(N4CCOCC4)cc3)c3nccn23)ccc1C(N)=O ?
Result: 6.00 to 6.30

Ask: What about NC(=O)c1ccc(-c2cnc(Nc3ccc(OCCN4CCOCC4)cc3)c3nccn23)cc1F ?
Result: 6.00 to 6.30

Ask: What about c1cn2c(-c3cn[nH]c3)cnc(Nc3ccc(N4CCOCC4)cn3)c2n1 ?
Result: < 6.00

Ask: What about CN1CCC(Oc2ccc(Nc3ncc(-c4ccc(C(N)=O)c(F)c4)n4ccnc34)cc2)CC1 ?
Result: < 6.00

// provenance: patent US8178530B2
